Species: Rattus norvegicus
Assay: Open TG-GATES - Regimen: Daily Repeat
Type: toxicity, organism-based, Sprague-Dawley
Design: regimen Daily Repeat, gender Male, age 6 weeks
Settings: in vivo, po, 1000 mg/kg, […], tissue Plasma, route gavage, dose level High, time 28 day
measure-name: TC (mg/dL)
Numbers only, in mg/dL.

Here's what some known entries look like.
CCCCNC(=O)NS(=O)(=O)c1ccc(C)cc1 [TOLBUTAMIDE] = 58.2
O=C(O)c1ccccc1Nc1ccccc1 [FENAMIC ACID] = 80
CC(S)C(=O)NCC(=O)O (centres undefined) [TIOPRONIN] = 63

--- query ---
Consider the molecule CC(=O)[C@@]1(O)CC[C@H]2[C@@H]3C=C(Cl)C4=CC(=O)CC[C@]4(C)[C@H]3CC[C@@]21C [CHLORMADINONE] and give its measured TC.
97.6
